Every entry's value here was drawn from patent US20160200831A1.

# TARGET UNDER TEST: T1, human PAI-1 (human, UniProt P05121 24-402)
# T1 construct: also used for endogenous PAI-1 of human plasma, liver lysate and lung fibroblasts; also called hPAI-1; hPAI
# T1 sequence (P05121 24-402 limits assumed): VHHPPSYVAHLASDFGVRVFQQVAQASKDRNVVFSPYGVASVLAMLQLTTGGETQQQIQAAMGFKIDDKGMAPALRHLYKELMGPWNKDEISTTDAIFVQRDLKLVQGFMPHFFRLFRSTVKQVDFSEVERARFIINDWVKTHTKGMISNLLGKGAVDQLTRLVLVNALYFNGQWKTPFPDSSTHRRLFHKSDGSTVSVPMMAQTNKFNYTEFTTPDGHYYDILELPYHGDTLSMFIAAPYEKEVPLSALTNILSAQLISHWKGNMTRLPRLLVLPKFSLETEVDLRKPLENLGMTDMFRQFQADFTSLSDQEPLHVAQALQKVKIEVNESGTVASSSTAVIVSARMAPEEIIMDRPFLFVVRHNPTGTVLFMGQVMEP
# TEST METHOD NOTES: Biacore, hybridoma supernatant
ATTRIBUTE MEASURED: koff

# binder E21 (antibody, mouse IgG2b, V domains shown, mouse IgG2b; also called mE21; E21 (IgG2b)) VH: EVQLQQSGAELVRSGASVKLSCTASGFNIKDYYMHWVKQRPEQGLEWIGWIDPENGDTEYDPKFQAKATMTADTSSNTAYLQLSSLTSEDTAVYYCMYGNYPYYFDYWGQGTTLTVSS VL: DIQMTQTTSSLSASLGDRVTISCRASQDISNYLNWYQQKPDGTVKLLIYYTSRLHSGVPSRFSGSGSGTDYSLTISNLEQEDIATYFCQQGNTLPWTFGGGTKLEIK ; its koff = ≤ 0.0001 s⁻¹
